B1: Steroid hormone receptor ERR2, residues 100 to 176; numbered along this chain, O95718 (parent)
chain: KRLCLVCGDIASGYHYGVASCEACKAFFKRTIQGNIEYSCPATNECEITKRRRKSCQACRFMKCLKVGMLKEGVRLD

- Variants of: B1
- method_notes: abundance fitness (aPCA) (normalised: wild type 0, dead -1); higher = more abundant; growth selection in yeast, the domain comes from the species named
- study_conditions: Homo sapiens
quantity_measured: abundance fitness

{"columns": ["residue_change", "quantity_measured", "val"],
 "data": [
  ["R52H", "abundance fitness", -0.627],
  ["G17R", "abundance fitness", -0.495],
  ["I32K", "abundance fitness", -0.337],
  ["C46A", "abundance fitness", -0.888],
  ["C7R", "abundance fitness", -0.586],
  ["F27C", "abundance fitness", -0.119],
  ["A11V", "abundance fitness", -0.289],
  ["K25D", "abundance fitness", 0.375],
  ["E37C", "abundance fitness", -0.158],
  ["I36H", "abundance fitness", -0.167],
  ["A58R", "abundance fitness", -0.076],
  ["G8A", "abundance fitness", -0.101],
  ["K63S", "abundance fitness", -0.611],
  ["R30Q", "abundance fitness", 0.109],
  ["A11P", "abundance fitness", -0.542],
  ["S12Y", "abundance fitness", -0.32],
  ["V6T", "abundance fitness", -0.51],
  ["N35Q", "abundance fitness", 0.05],
  ["C7W", "abundance fitness", -1.22],
  ["R2Y", "abundance fitness", 0.014],
  ["R2A", "abundance fitness", -0.226],
  ["N35K", "abundance fitness", 0.027]
]}
